All values here come from patent US20240209086A1.

- test-system: T1, canine CD20 on cells (HEK293, MDCK II, CLBL-1 or native B cells) (canine, UniProt Q3C2E2 1-297)
- T1 chain: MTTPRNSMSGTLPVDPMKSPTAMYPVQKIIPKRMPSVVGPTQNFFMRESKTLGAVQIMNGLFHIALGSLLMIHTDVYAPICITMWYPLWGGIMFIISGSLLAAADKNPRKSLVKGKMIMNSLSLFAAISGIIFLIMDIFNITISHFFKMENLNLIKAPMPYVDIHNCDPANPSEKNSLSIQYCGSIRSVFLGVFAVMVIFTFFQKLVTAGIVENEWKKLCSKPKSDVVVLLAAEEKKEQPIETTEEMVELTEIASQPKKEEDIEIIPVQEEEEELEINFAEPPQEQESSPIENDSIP
- experiment-notes: cell-based or functional assay
measured-quantity: EC50 (nM), bispecific killing (FIG. 15)
Reply numerically in nM, unit not repeated.

Observe how each entry below is paired with its result.
PMX172VH/PMX229VH/PMX172VL (bispecific antibody, V domains shown) VH 1: EVQLVESGGDLVKPGGSLRLSCVASGFTFSSYHMSWVRQAPGKGLQWVAYSNSGGSRTSYADAVKGRFTISRDNAKNTLYLQMNSLRAEDTAVYYCASEGGGGRYGYKDYGMDYWGHGTSLFVSS VH 2: EVQLVESGGDLVKPGGSLRLSCVASGITFSRYHMSWVRQAPGKGLQWVAFINTGRSSTNYADAVAGRFTISRDNAKNTLYLQMNGLTVEDTAVYYCSTLDYWGQGTLVTVSS VL: SYVLTQLPSKNVTLKQPAHITCGGDNIGSKSVHWYQQKLGQAPVLIIYYDSSRPTGIPERFSGANSGNTATLTISGALAEDEADYYCQVWDSSAKAWVFGEGTQLTVL :: 1.02
PMX172VH/PMX230VH/PMX172VL (bispecific antibody, V domains shown) VH 1: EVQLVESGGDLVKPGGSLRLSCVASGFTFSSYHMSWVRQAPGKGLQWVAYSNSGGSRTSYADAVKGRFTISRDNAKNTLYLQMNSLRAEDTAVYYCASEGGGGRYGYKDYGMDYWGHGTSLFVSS VH 2: EVHLVESGGDLVKPGGSLRLSCVASGITFNRYYMNWVRQTPGKGLQWVAYIDSGGSPTTYADAVKGRFTISRDNAKNTLYLQMNSLRAEDTAVYYCTSFDYWGQGTLVTVSS VL: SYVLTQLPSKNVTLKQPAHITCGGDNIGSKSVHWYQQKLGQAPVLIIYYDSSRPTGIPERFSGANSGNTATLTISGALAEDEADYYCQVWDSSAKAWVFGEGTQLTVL :: 0.121
PMX172VH/PMX240VH/PMX172VL (bispecific antibody, V domains shown) VH 1: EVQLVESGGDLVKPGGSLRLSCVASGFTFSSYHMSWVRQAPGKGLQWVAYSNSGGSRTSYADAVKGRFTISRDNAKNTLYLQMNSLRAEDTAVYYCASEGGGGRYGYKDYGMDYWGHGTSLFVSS VH 2: EVQLVESGGDLVKPGGSLRLSCVASGLTFSRYHMSWVRQAPGKGLQWVAFINSGRSDTTYADAVKGRFTISRDNAKNTLYLQMNSLRAEDTAVYYCTTFDYWGQGTLVTVSS VL: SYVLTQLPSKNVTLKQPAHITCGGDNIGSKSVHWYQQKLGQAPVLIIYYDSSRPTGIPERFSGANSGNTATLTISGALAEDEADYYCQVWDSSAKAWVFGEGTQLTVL :: 0.341
PMX172VH/PMX236VH/PMX172VL (bispecific antibody, V domains shown) VH 1: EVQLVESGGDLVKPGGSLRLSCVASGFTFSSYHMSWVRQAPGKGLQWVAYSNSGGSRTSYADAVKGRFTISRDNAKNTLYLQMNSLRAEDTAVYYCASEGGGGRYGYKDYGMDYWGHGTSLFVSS VH 2: EVQLVESGGDLVKPGGSLRLSCVASGLTFSRYYMNWVRQAPGKGLQWVAYIDSGGSPTNYADAVKGRFTISRDNAKNTLYLQMNSLRAEDTAVYYCSSFDYWGQGTLVTVSS VL: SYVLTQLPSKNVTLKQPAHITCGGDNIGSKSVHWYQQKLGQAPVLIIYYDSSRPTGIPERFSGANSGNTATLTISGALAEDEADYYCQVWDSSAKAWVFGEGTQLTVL :: 0.153

Consider the binder PMX172VH/PMX262VH/PMX172VL (bispecific antibody, V domains shown) VH 1: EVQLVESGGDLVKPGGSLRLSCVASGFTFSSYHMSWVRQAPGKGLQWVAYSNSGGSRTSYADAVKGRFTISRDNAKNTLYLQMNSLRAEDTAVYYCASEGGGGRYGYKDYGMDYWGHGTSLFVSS VH 2: EVQLVESGGDLVKPGGSLRLSCVASGITFSRYYMNWVRQAPGKGLQWVAYINSGGSPTTYADAVKGRFTISRDNAKNTLYLQMNSLRAEDTAVYYCTSFDYWGQGTLVTVSS VL: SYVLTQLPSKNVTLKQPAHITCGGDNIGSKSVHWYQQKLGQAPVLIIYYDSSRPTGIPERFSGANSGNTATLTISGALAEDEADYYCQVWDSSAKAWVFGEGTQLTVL and give its measured EC50 (nM), bispecific killing (FIG. 15). 0.129
